# Test system: MCF7 breast
# Protocol Details: NCI-60 one-dose screen, 48 h (100 = growth as untreated, 0 = no growth, -100 = all killed)
# Condition: 10 µM unless noted
# Protocol: Growth inhibition of the MCF7 human tumor cell line is measured as a screen for anti-cancer activity. Cells are grown in 96 well plates and exposed to the test compound for 48 hours. Compounds are tested at a single concentration, which is 10^-5 M for most compounds. The reported endpoint is percent growth (GI% or GIPRCNT), where numbers from 0 - 100% represent growth inhibition, and numbers from -100% - 0 represent cell death. For example, a value of 40 represents 60% growth inhibition. […]
This is part of a sample that, as a whole, favours compounds with a hit. Of some 83,000 tested, about 20% had one in any assay.
Checkbox rule: growth lower than 60% = yes (1); growth not lower than 60% = no (0).

>>> df
                             molecule  assigned_class
0  NC(=NCCCOc1ccc(F)cc1)Nc1ccc(Cl)cc1         yes (1)

Now look at this entry.
Say whether its growth is strictly beneath 60%. Entry: N#CC1C(C#N)C2c3ccccc3C=CN2C1C(=O)c1ccc(Br)cc1 (stereo unspecified)
no (0)

====

# Test system: HCT-116 colon
# Protocol Details: NCI-60 one-dose screen, 48 h
# Condition: 10 µM unless noted
About 83,000 compounds went through this panel and 20% of them were active in at least one assay; those are over-represented in the sample as a whole. The source made the active and inactive calls. Rule for the calls: active = growth percent below 10; inactive = the rest.
Hello, when you answer, please use one of the following outcomes: 1.0 for active, 0.0 for inactive

The examples below pair each entry with its known result.
                                   compound  target_of_assay  assigned_class
0  Cc1ccc(C(=O)/C(=C\c2ccc([N+](=O)[O-])cc2)S(=O)Cc2ccc(F)cc2)cc1 (stereo not drawn)    HCT-116 colon             1.0
1  COC(=O)/C=C1\S/C(=N\NC(=O)c2cc3ccc2/C=C\c2ccc(cc2)/C=C\3)N(Cc2ccccc2)C1=O    HCT-116 colon             0.0
2  O=C(Nc1ccccc1)Nc1ccc2cc3ccc(NC(=O)Nc4ccccc4)cc3nc2c1    HCT-116 colon             1.0
3                Cc1nc2sccn2c1-c1cn2ccsc2n1    HCT-116 colon             0.0
4                       CCCCN1C=CCN(CCCC)C1    HCT-116 colon             0.0

State the result this test recorded for CCc1ccc(CNc2ccc(N3CCOCC3)c(C(=O)O)c2)cc1 .
0.0

Entry to check: CN1CCN(C(=O)[C@]23CCC(C)(C)C[C@H]2C2=CC[C@@H]4[C@@]5(C)C/C(=C/c6ccncc6)C(=O)C(C)(C)[C@@H]5CC[C@@]4(C)[C@]2(C)CC3)CC1
0.0

Entry to check: Cc1ccc(S(=O)(=O)NNC(=O)/C(=C\c2ccc(Cl)cc2)c2nc3ccccc3s2)cc1
0.0

====

# Test system: SF-268 CNS
# Protocol Details: NCI-60 one-dose screen, 48 h (100 = growth as untreated, 0 = no growth, -100 = all killed)
# Condition: 10 µM unless noted
The panel holds about 83,000 compounds, 20% with a hit somewhere; the sample as a whole holds those more often.
Metric: growth (%)
Respond numerically; units are % and should not be typed.

Some compounds with recorded growth:
In [3]: df
Out[3]:
                                   compound  unit_text  readout_value
0  CCCOc1ccc(/C=N/Nc2cc(C)nc3ccc(Br)cc23)cc1          %            102
1  CN1[C@@H]2CC[C@H]1/C(=C\c1ccccc1)C(=O)/C2=C/c1ccccc1          %           38.3
2  O=C1Nc2ccccc2/C1=C\c1c(-c2ccccc2)nc2ccccn12          %           51.2
3  O=C(CCN1CCCC1)Nc1ccc2c(NCc3ccccc3)c3ccccc3nc2c1          %          -2.23
4  Cn1cc(-c2nc(-c3c[nH]c4c(Cl)nccc34)cs2)c2cc(F)ccc21          %            114

Recorded growth of COc1ccc2c(c1)oc1c(C)c3c(c(C)c12)C(=O)N(N)C3=O , please.
39.8

Entry to check: COc1ccc(C(=O)C2C(C#N)C(C#N)C3C=Cc4ccccc4N32)cc1 (stereo unspecified)
55.7

Entry to check: CCOC(=O)C1=C(C)NC(SCc2cc(=O)oc3ccc(F)cc23)=N[C@@H]1c1cccc2ccccc12
94.3

====

# Test system: HCC-2998 colon
# Protocol Details: NCI-60 one-dose screen, 48 h (100 = growth as untreated, 0 = no growth, -100 = all killed)
# Condition: 10 µM unless noted
The panel holds about 83,000 compounds, 20% with a hit somewhere; the sample as a whole holds those more often.
The entries below are paired with their reported growth.
Respond numerically; units are % and should not be typed.

Some compounds with recorded growth:
>>> df
                                   compound  metric  readout_value
0  O=C(Nc1cccc(C(=O)N2CCc3ccc(Cl)cc32)c1)c1ccco1  growth             68
1  C=C1C(=O)O[C@H]2[C@H]1CC/C(COC(=O)NCc1c[nH]c3ccc(Cl)cc13)=C\CC[C@@]1(C)O[C@@H]21  growth           70.4

Consider the record given below.
Recorded growth of O=C(N/N=C/c1ccc(Oc2ccccc2)cc1)c1cnn2c1NC(c1ccccc1)C2 (stereo not drawn) , please.
71.8

====

# Test system: NCI-H23 lung
# Protocol Details: NCI-60 one-dose screen, 48 h (100 = growth as untreated, 0 = no growth, -100 = all killed)
# Condition: 10 µM unless noted
Compounds without any hit were thinned out: in the full panel of roughly 83,000, 20% have a hit.
Metric: growth (%)
Respond numerically; units are % and should not be typed.

Some molecules with recorded growth:
>>> print(df.to_string())
                      smiles_representation  readout_value
0  Cn1cc(-c2nc(-c3c[nH]c4c(Cl)nccc34)cs2)c2cc(F)ccc21            104
1  Cc1cc2c(C(=O)NCC#N)cccc2n1-c1nc2c(c(NCc3ccccc3)n1)CCCC2          -41.8
2  CCCCCCNC(=O)Oc1ccc(/C(=C(\C)c2ccccc2)c2ccc(OCCCN(C)C)cc2)cc1           82.8

Recorded growth of COc1cc(C(=O)Nc2cc3c(cc2Oc2cc(C)cc(C)c2)C(=O)N(C)[C@@H](CC(=O)N(C)O)C(=O)N3)c(Br)c(OC)c1OC , please.
-20.4

Entry to check: CN1CCN(C(=O)[C@]23CCC(C)(C)C[C@H]2C2=CC[C@@H]4[C@@]5(C)C/C(=C/c6ccncc6)C(=O)C(C)(C)[C@@H]5CC[C@@]4(C)[C@]2(C)CC3)CC1
72.4

Entry to check: COc1ccc(C(=O)/C=C/c2cc3ccccc3n3nnnc23)cc1
103

Entry to check: O=C(Nc1ccc(Cl)cc1)c1cc(NCc2cc(O)ccc2O)ccc1O
93.2

====

# Tested on: UO-31 renal
# Protocol Details: NCI-60 one-dose screen, 48 h
# Condition: 10 µM unless noted
Compounds without any hit were thinned out: in the full panel of roughly 83,000, 20% have a hit. The source made the active and inactive calls. The calls were made as follows: active = growth percent below 10; inactive = the rest.
Hello, when you answer, please use one of the following outcomes: yes for active, no for inactive

State the result this test recorded for O=C(Nc1ncc(Cc2cc(Cl)ccc2Cl)s1)c1cccs1 .
no

Entry to check: CN(C)CCC(=O)c1ccc([N+](=O)[O-])cc1
no

Entry to check: Nc1c(C(=O)Nc2ccnc3ccccc23)sc2nc3c(cc12)CN(Cc1ccccc1)CC3
no

Entry to check: Cc1ccc(C(=O)/C(=C\c2ccc([N+](=O)[O-])cc2)S(=O)Cc2ccc(F)cc2)cc1 (configuration not stated)
yes

Entry to check: O=[N+]([O-])CC(c1ccccc1)c1c[nH]c2ccccc12 (configuration not stated)
no

Entry to check: COc1cc2nc(-c3ccc(C(F)(F)F)cc3)cc(OCCCN3CCCC3)c2cc1OC
no

Entry to check: N/C(=N\C(N)=N\c1nc2ccccc2s1)c1ccnc(Br)c1
no

Entry to check: O=C(/C(=C/c1ccc([N+](=O)[O-])cc1)SCc1ccc(F)cc1)c1ccc(F)cc1
no

Entry to check: N/C(=N\C(N)=N\c1nc2ccccc2s1)c1cnccn1
yes

====

# System: RPMI-8226 leukemia
# Protocol Details: NCI-60 one-dose screen, 48 h (100 = growth as untreated, 0 = no growth, -100 = all killed)
# Condition: 10 µM unless noted
This is part of a sample that, as a whole, favours compounds with a hit. Of some 83,000 tested, about 20% had one in any assay. The source made the active and inactive calls. The calls were made as follows: active = growth percent below 10; inactive = the rest.
Metric: growth

Smiles Representation	Readout Value
Cc1ccc(-n2c3c(c(-c4ccccc4)c2-c2ccccc2)C2=NCCN2C=N3)cc1	77.8% (inactive)
COc1cc2nc(-c3ccc(C(F)(F)F)cc3)cc(OCCCN3CCCC3)c2cc1OC	21.6% (inactive)
NS(=O)(=O)c1ccc(CCN2C(=O)C=CC2=O)cc1	102% (inactive)
S=c1cc(S)c2cc(Br)ccc2[nH]1	96.7% (inactive)
CC1(C)NCCC[C@]2(C)[C@H]3CC[C@@H]4[C@H]5[C@H](C(=O)/C=C/c6ccco6)CC[C@]5(CO)CC[C@@]4(C)[C@]3(C)CC[C@@H]12	44.2% (inactive)

Notebook: pull reported growth for RPMI-8226 leukemia, entry CC(=O)Nc1ccc(-c2ccc3c(c2)NC(=O)/C3=C\c2ccc[nH]2)cc1
94.4% (inactive)

Entry to check: CCCCCC(=O)Oc1ccc(/C(=C(/C)Cc2ccc(OC)cc2)c2ccc(OCCCN(C)C)cc2)cc1
82.7% (inactive)

Entry to check: COc1ccc(C(=O)c2nc3ccccc3n2CC(=O)c2ccc(Cl)cc2)cc1
-17.4% (active)

Entry to check: O=C(CNCCN1CCOCC1)N1c2cccc3cccc(c23)N(C(=O)CNCCN2CCOCC2)C1c1cn(-c2ccccc2)nc1-c1cccc([N+](=O)[O-])c1
44.8% (inactive)

Entry to check: CCOC(=O)[C@@H]1CCCN(S(=O)(=O)c2ccc(S(=O)(=O)N(CC)CC)c(F)c2)C1
61% (inactive)

Entry to check: CNC(=O)c1cccc(Cn2nc(C)c(NC(=O)c3ccc(COc4ccc(C(F)(F)F)cc4C)cc3)c2C)c1
27.3% (inactive)

Entry to check: O=C1c2ccc3c4c(ccc(c24)C(=O)N1CCCNCc1ccccc1)C(=O)N(CCCNCc1ccccc1)C3=O
-36.7% (active)

Entry to check: CC1(C)NCCC[C@]2(C)[C@H]3CC(=O)[C@H]4[C@@H]5C[C@](C)(CO)CC[C@]5(C)CC[C@@]4(C)[C@]3(C)CC[C@@H]12
95% (inactive)

Entry to check: COc1cc2nc(-c3ccc(Cl)cc3)cc(OCCCN3CCCCC3)c2cc1OC
21% (inactive)

Entry to check: COc1ccc(C/C(C)=C(/c2ccc(OCCCN(C)C)cc2)c2ccc(OC(C)=O)cc2)cc1
79.2% (inactive)

Entry to check: c1ccc2c(-c3c[nH]c4ccccc34)c3c(cc2c1)[nH]c1ccccc13
54.5% (inactive)

Entry to check: Cc1ccc(NC(=O)c2cc(-c3nc4ccccc4s3)c(=O)n(NS(=O)(=O)c3ccc(Cl)cc3)c2N)cc1
94.6% (inactive)

Entry to check: CC(=O)OC[C@]12CC[C@@H](C(=O)CBr)[C@@H]1[C@H]1CC[C@@H]3[C@@]4(C)CC[C@H](OC(C)=O)C(C)(C)[C@@H]4CC[C@@]3(C)[C@]1(C)CC2
91.4% (inactive)

Entry to check: CN[C@@H](C)C(=O)N[C@H]1CCS[C@H]2CC(C)(C)[C@@H](C(=O)N[C@H]3c4ccccc4C[C@H]3OCC#CC#CCO[C@@H]3Cc4ccccc4[C@@H]3NC(=O)[C@H]3N4C(=O)[C@@H](NC(=O)[C@H](C)NC)CCS[C@H]4CC3(C)C)N2C1=O
71.2% (inactive)

Entry to check: O=C1Nc2ccccc2/C1=C\c1c(-c2ccccc2)nc2ccccn12
66% (inactive)

Entry to check: Cn1cc(-c2nc(-c3c[nH]c4c(Cl)nccc34)cs2)c2cc(Br)ccc21
78.6% (inactive)

Entry to check: O=C1c2ccc3c4c(ccc(c24)C(=O)N1CCCNCc1ccccc1F)C(=O)N(CCCNCc1ccccc1F)C3=O
-32.2% (active)
